System: mouse pupil (basal pupillary diameter)
Experiment: Mydriatic activity in the mouse
Assay type: in vivo
Settings: mouse, i.p.; 150% increase of basal pupillary diameter; 30 min
Experimental: 4. Mydriatic activity in the mouse The dose able to increase the basal pupillary diameter by 150% (ED150)15 minutes, 30 minutes, 60 minutes and 120 minutes after intraperitoneal administration of the compounds into the mouse was calculated. Mydriatic activity evaluated in the mouse 15 minutes, 30 minutes, 60 minutes after intraperitoneal administration
Entries annotated with measured ED150 after 30 min
Field format: number, assumed mg/kg/i.p., no unit text.

The examples below pair each entry with its known result.
• CCCC(CCC)C(=O)O[C@@H]1C[C@@H]2[C@H]3O[C@H]3[C@H](C1)[N@+]2(C)CC = 6.16
• C[N+]1(C)[C@@H]2CC[C@H]1C[C@@H](OC(=O)C(CO)c1ccccc1)C2 (stereo partly shown) [Atropine MeBr, atropine methyl bromide] = 0.030

For the compound CCCC[N+]1(C)[C@@H]2C[C@@H](OC(=O)[C@H](CO)c3ccccc3)C[C@H]1[C@@H]1O[C@@H]12 (stereo partly shown) [Buscopan, scopolamine butyl bromide] , what ED150 after 30 min is on record? 3.29

Please answer likewise for `CCCC(CCC)C(=O)O[C@@H]1C[C@@H]2[C@H]3O[C@H]3[C@H](C1)[N+]2(C)C` 0.42
